Reference source: PubChem BioAssay (EPA / NIEHS)

- method_notes: CCTE_Shafer_MEA_dev_burst_duration_mean: CCTE's Neural Network Formation Assay for Mean Burst Duration, Shafer Lab (AID 2284045)
Activity calls are given as the source filed them. How the source made its calls: active means hit-call score of the fitted dose curve at least 0.9, where 1 is the maximum; inactive means score below 0.9.
// classify into true for active, false for inactive

Request: Test call, this molecule: CC/C(=C(\c1ccccc1)c1ccc(OCCN(C)C)cc1)c1ccccc1
Result: true

Request: Test call, this molecule: CC(C)Cc1ccc(C(C)C(=O)O)cc1 (centres undefined)
Result: false

Request: Test call, this molecule: CCCCC(CC)COC(=O)COc1ccc(Cl)cc1C (centres undefined)
Result: false

Request: Test call, this molecule: N#CCCNCCC#N
Result: false

----------
- Read-out: Monocyte Chemoattractant Protein-1 (MCP1), CCL2 (gene 6347)
- method_notes: BSK_4H_MCP1: BioMAP Diversity Plus: 4H Assay for Monocyte Chemoattractant Protein-1 (MCP1) Biomarker Activity (AID 2283018)
- cond: primary human endothelial cells (HUVEC); actives raise or lower the signal
Activity calls are given as the source filed them. The calls were made as follows: active = hit-call score of the fitted dose curve at least 0.9, where 1 is the maximum; inactive = score below 0.9.
// classify into true (1) = active, false (0) = inactive

Request: Test call, this compound: NC(=O)c1c(Cl)cccc1Cl
Result: false (0)

Request: Test call, this compound: CC1=CC(C)C(C=O)C(C)C1 (stereo unspecified) (tested in a mixture with another compound)
Result: false (0)

Request: Test call, this compound: C#C[C@]1(O)CC[C@H]2[C@@H]3CCc4cc(O)ccc4[C@H]3CC[C@@]21C
Result: false (0)

Request: Test call, this compound: C=C(F)C(=O)OC(C(F)(F)F)C(F)(F)F
Result: false (0)

Request: Test call, this compound: CCCO[Si](OCCC)(OCCC)OCCC
Result: false (0)

Request: Test call, this compound: CCCCOCCOCCO
Result: false (0)

Request: Test call, this compound: CCOC(=O)C=Cc1ccccc1
Result: false (0)

Request: Test call, this compound: CC(C)(CO)CO
Result: false (0)

Request: Test call, this compound: C=C(C)C(=O)OCCC(F)(F)C(F)(F)C(F)(F)C(F)(F)C(F)(F)C(F)(F)C(F)(F)C(F)(F)F
Result: false (0)

Request: Test call, this compound: O=C(O)C(F)(F)OC(F)(F)C(F)(F)OC(F)(F)C(F)(F)C(F)(F)C(F)(F)F
Result: false (0)

Request: Test call, this compound: C[C@]12CC[C@@H]3c4ccc(O)cc4CC[C@H]3[C@@H]1CC[C@@H]2O
Result: true (1)
